# system_under_test: CYP3A4 (Homo sapiens, UniProt P08684)
# Construct: A system of 100 μL human liver microsomes; from tissue; host or cells: human liver microsomes
# Sequence (P08684 whole entry): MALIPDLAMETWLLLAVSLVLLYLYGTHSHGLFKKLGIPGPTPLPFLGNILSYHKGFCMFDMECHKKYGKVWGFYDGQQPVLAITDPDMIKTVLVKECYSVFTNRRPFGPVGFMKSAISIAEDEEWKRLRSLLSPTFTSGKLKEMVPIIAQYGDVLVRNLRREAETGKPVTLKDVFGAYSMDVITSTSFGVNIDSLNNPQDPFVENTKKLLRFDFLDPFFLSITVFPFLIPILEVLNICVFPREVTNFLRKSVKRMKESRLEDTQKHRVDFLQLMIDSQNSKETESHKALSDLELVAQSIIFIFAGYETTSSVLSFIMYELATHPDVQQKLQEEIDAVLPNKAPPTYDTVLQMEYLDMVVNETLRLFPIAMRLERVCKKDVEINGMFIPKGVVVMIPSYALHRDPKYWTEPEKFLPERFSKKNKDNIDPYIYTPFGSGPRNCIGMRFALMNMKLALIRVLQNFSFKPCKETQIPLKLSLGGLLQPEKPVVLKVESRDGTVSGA
# protocol_details: Direct inhibition (DI) of CYP3A4 in human liver microsomes
# Type: in vitro ADME
# study_conditions: human liver microsomes 0.2 mg/mL, 10 μM compound, probe Midazolam, read-out: Direct inhibition (DI) 3A4 (Midazolam)
readout_label: inhibition at 20 min, 10 µM (%)

Here's what some known entries look like.
Cc1cc(Nc2ncnc3ccc(NC(=O)/C=C/[C@H]4CCCN4C)cc23)ccc1Oc1ccn2ccnc2c1 [Final product of Embodiment 11]    5
CCOc1cc2ncnc(Nc3ccc(Oc4ccn5ncnc5c4)c(C)c3)c2cc1NC(=O)/C(F)=C\[C@@H]1CCCN1C    14

P: CCOc1cc2ncnc(Nc3ccc(Oc4ccn5ncnc5c4)c(C)c3)c2cc1NC(=O)/C=C/[C@H]1CCCN1 [Final product of Embodiment 38]
Q: Cc1cc(Nc2ncnc3ccc(NC(=O)/C=C/[C@H]4CCCN4C)cc23)ccc1Oc1ccc2nccn2n1 [Final product of Embodiment 10]
QUERY: Which value of inhibition at 20 min, 10 µM is smaller, the one for P or the one for Q ? Respond using the label that marks the chosen record.
RESULT: P

* * *

# protocol_details: In vivo pharmacokinetic study in mice
# study_conditions: male, ICR, mouse, plasma, oral, 3 mg/kg intravenous, 10 mg/kg intragastric
readout_label: bioavailability (%)
Unit % implied. Number only.

QUERY: Note down bioavailability recorded for CCOc1cc2ncnc(Nc3ccc(Oc4ccn5ncnc5c4)c(C)c3)c2cc1NC(=O)/C(F)=C/[C@H]1CCCN1C
RESULT: 87.7

* * *

# system_under_test: ErbB2 kinase (Homo sapiens, UniProt P04626)
# Construct: The final concentration of ErbB2 kinase was 0.06 ng/μL
# Sequence (P04626 23-1255): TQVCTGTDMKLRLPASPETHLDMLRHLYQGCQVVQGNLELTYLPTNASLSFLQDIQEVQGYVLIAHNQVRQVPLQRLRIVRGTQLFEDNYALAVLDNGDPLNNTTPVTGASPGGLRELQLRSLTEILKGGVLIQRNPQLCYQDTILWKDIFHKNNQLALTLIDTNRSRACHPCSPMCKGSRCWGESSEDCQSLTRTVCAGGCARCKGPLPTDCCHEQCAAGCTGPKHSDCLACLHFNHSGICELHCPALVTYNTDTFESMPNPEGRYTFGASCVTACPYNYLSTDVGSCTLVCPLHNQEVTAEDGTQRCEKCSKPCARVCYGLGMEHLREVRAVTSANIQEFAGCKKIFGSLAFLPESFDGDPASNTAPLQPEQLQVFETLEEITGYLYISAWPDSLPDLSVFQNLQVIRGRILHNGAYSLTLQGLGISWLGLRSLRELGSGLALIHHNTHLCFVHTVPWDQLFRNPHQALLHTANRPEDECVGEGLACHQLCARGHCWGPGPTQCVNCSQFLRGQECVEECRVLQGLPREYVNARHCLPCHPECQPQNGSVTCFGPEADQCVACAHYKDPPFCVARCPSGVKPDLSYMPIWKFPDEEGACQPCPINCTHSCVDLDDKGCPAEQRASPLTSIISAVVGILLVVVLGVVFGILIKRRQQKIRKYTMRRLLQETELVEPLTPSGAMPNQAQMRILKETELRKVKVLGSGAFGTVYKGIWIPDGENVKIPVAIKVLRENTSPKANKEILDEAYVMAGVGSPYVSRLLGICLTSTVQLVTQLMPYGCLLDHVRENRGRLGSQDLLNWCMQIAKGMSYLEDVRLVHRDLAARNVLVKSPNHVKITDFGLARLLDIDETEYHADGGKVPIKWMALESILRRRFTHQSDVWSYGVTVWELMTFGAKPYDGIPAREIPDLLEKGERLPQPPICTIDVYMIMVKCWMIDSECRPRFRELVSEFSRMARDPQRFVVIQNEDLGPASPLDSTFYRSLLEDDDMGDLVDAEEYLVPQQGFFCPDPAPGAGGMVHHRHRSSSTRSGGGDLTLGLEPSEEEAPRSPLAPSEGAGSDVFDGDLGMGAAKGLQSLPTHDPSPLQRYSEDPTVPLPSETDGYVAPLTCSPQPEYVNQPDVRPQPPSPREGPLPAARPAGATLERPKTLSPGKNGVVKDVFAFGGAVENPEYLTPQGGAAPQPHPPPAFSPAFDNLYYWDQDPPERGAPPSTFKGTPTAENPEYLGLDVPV
# protocol_details: EGFR/ErbB2 enzymatic experiment (HTRF kinEASE-TK), ErbB2
# Assay type: biochemical
# study_conditions: ErbB2 kinase 0.06 ng/μL, ATP 4 μM; read-out: Kinase IC50 (nM) in vitro ErbB2
readout_label: IC50 (nM)

Example entries and their recorded answers appear below.
Cc1cc(Nc2ncnc3ccc(NC(=O)/C=C/[C@H]4CCCN4C)cc23)ccc1Oc1cc2nccn2cn1    0.6
Cc1cc(Nc2ncnc3ccc(NC(=O)/C(F)=C/[C@H]4CCCN4C)cc23)ccc1Oc1cc2nncn2cn1    2.6
CCOc1cc2ncc(C#N)c(Nc3ccc(Oc4cc5nncn5cn4)c(C)c3)c2cc1NC(=O)/C=C/[C@H]1CCCN1C    3.56
Cc1cc(Nc2c(C#N)cnc3ccc(NC(=O)/C=C/[C@H]4CCCN4)cc23)ccc1Oc1cc2nncn2cn1    8.25
Cc1cc(Nc2ncnc3ccc(NC(=O)/C=C/[C@H]4CCCN4C)cc23)ccc1Oc1ccc2nccn2n1    1.34
CN1CCC[C@@H]1/C=C/C(=O)Nc1ccc2ncnc(Nc3ccc(Oc4ccn5ncnc5c4)c(Cl)c3)c2c1    0.83
COCCOc1cc2ncnc(Nc3ccc(Oc4cc5nncn5cn4)c(C)c3)c2cc1NC(=O)/C=C/[C@H]1CCCN1C    1.1
Cc1cc(Nc2ncnc3ccc(NC(=O)/C=C/[C@H]4CCCN4C)cc23)ccc1Oc1ccn2ncnc2n1    0.99

a: CCOc1cc2ncnc(Nc3ccc(Oc4cc5nncn5cn4)c(C)c3)c2cc1NC(=O)/C=C/[C@H]1CCCN1
b: Cc1cc(Nc2ncnc3ccc(NC(=O)/C=C/C4COCCN4)cc23)ccc1Oc1cc2nncn2cn1 (stereo not shown)
c: Cc1cc(Nc2ncnc3ccc(NC(=O)C=CC4COCCN4)cc23)ccc1Oc1cc2nncn2cn1 (stereo in doubt)
d: Cc1cc(Nc2c(C#N)cnc3ccc(NC(=O)/C=C/[C@H]4CCCN4C)cc23)ccc1Oc1cnc2c(cnn2C)c1
QUERY: Rank entries according to their IC50, from the largest number down. A ranking is expressed here by listing the labels in the requested order.
RESULT: d, c, b, a
(d: 220 nM, c: 3.25 nM, b: 1.61 nM, a: 0.488 nM)

1: CCOc1cc2ncnc(Nc3ccc(Oc4cc5nncn5cn4)c(C)c3)c2cc1NC(=O)/C=C/[C@H]1CCCN1C
2: Cc1cc(Nc2ncnc3ccc(NC(=O)/C=C/[C@H]4CCCN4C)cc23)ccc1Oc1cnc2ccnn2c1
3: Cc1cc(Nc2ncnc3ccc(NC(=O)/C=C/[C@H]4CCCN4C)cc23)ccc1Oc1ccc2nccn2c1
QUERY: Given 3 molecules, produce a descending ranking by IC50. Write the labels, ordered according to the request.
RESULT: 3, 2, 1
(3: 6.46 nM, 2: 1.09 nM, 1: 0.513 nM)

A: Cc1cc(Nc2ncnc3ccc(NC(=O)/C=C/[C@H]4CCCN4)cc23)ccc1Oc1ccn2ncnc2c1
B: CCOc1cc2ncnc(Nc3ccc(Oc4ccn5ncnc5c4)c(C)c3)c2cc1NC(=O)/C(F)=C\[C@@H]1CCCN1C
C: C=C(F)C(=O)N1CC=C(c2ccc3ncnc(Nc4ccc(Oc5cc6nncn6cn5)c(C)c4)c3c2)CC1
D: C=CC(=O)Nc1ccc2ncc(C#N)c(Nc3ccc(Oc4cc5nncn5cn4)c(C)c3)c2c1
E: C=CC(=O)N1CCCC(Nc2ccc3ncnc(Nc4ccc(Oc5cc6nncn6cn5)c(C)c4)c3c2)C1 (stereo in doubt)
QUERY: Put these in order: smallest IC50 first, largest last. Reply: labels, ordered per the request.
RESULT: A, C, B, D, E
(A: 0.716 nM, C: 2.92 nM, B: 4.6 nM, D: 7.98 nM, E: 17.5 nM)

P: C=CC(=O)N1CCC[C@@H](Nc2ccc3ncnc(Nc4ccc(Oc5cc6nncn6cn5)c(C)c4)c3c2)C1
Q: CCOc1cc2ncc(C#N)c(Nc3ccc(Oc4cc5nncn5cn4)c(C)c3)c2cc1NC(=O)/C=C/[C@H]1CCCN1
QUERY: Looking at recorded values for IC50, does P or Q come in lower? Kindly give the label for the entry you pick.
RESULT: P

* * *

# system_under_test: CYP2D6 (Homo sapiens)
# Construct: A system of 100 μL human liver microsomes; from tissue; host or cells: human liver microsomes
# Sequence (P10635 whole entry): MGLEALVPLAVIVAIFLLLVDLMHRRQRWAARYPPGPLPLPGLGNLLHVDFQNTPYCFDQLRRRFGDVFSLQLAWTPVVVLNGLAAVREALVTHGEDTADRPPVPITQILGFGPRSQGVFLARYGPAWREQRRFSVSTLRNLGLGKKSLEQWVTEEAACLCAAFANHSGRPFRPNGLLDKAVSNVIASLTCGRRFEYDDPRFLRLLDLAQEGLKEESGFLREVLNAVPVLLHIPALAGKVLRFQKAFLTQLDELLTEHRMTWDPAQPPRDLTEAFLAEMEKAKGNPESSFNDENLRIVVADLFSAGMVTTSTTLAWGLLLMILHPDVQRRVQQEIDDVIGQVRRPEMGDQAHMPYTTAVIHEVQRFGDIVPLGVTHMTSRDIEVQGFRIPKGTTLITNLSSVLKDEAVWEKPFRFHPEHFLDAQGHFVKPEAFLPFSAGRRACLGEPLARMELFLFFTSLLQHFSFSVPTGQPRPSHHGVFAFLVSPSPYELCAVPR
# protocol_details: Direct inhibition (DI) of CYP2D6 in human liver microsomes
# Format: in vitro ADME
# study_conditions: probe Dextromethorphan, human liver microsomes 0.2 mg/mL, 10 μM compound, read-out: Direct inhibition (DI) 2D6 (Dextromethorphan)
readout_label: inhibition at 20 min, 10 µM (%)

CCOc1cc2ncnc(Nc3ccc(Oc4ccn5ncnc5c4)c(C)c3)c2cc1NC(=O)/C(F)=C/[C@@H]1CCCN1C [Final product of Embodiment 47]    54

1: Cc1cc(Nc2ncnc3ccc(NC(=O)/C=C/[C@H]4CCCN4C)cc23)ccc1Oc1ccn2ncnc2c1 [Final product of Embodiment 20]
2: CCOc1cc2ncnc(Nc3ccc(Oc4ccn5ncnc5c4)c(C)c3)c2cc1NC(=O)/C(F)=C\[C@H]1CCCN1C [Final product of Embodiment 44]
QUERY: Smaller inhibition at 20 min, 10 µM value? Options are 1 and 2 Respond using the label that marks the chosen record.
RESULT: 2

* * *

# system_under_test: CYP3A4 (Homo sapiens)
# Construct: A system of 100 μL human liver microsomes; from tissue; host or cells: human liver microsomes
# protocol_details: Direct inhibition (DI) of CYP3A4 in human liver microsomes
# Format: in vitro ADME
# study_conditions: human liver microsomes 0.2 mg/mL, 10 μM compound, probe Midazolam, read-out: Direct inhibition (DI) 3A4 (Midazolam)
# Procedure: Study on Direct Inhibition (DI) of CYP3A4, CYP2D6, CYP2C9, CYP2C19, CYP1A2 A system of 100 μL human liver microsomes (final concentration: 0.2 mg/mL) was used for direct inhibition under warm incubation. […] The relative activity of the enzymes was calculated by measuring the relative production of metabolites.
readout_label: inhibition at 20 min, 10 µM (%)

C=C(F)C(=O)N1CC=C(c2ccc3ncnc(Nc4ccc(Oc5cc6nncn6cn5)c(C)c4)c3c2)CC1 [Final product of Embodiment 6]    72

a: CCOc1cc2ncnc(Nc3ccc(Oc4cc5nncn5cn4)c(C)c3)c2cc1NC(=O)/C=C/[C@H]1CCCN1 [Final product of Embodiment 17]
b: C=CC(=O)N1CCCC(Nc2ccc3ncnc(Nc4ccc(Oc5cc6nncn6cn5)c(C)c4)c3c2)C1 (stereo in doubt) [Final product of Embodiment 8]
QUERY: Would you let me know which has the greater inhibition at 20 min, 10 µM value, a or b ? State the label of the item chosen.
RESULT: b

* * *

# system_under_test: CYP1A2 (Homo sapiens, UniProt P05177)
# Construct: A system of 100 μL human liver microsomes; from tissue; host or cells: human liver microsomes
# Sequence (P05177 1-516): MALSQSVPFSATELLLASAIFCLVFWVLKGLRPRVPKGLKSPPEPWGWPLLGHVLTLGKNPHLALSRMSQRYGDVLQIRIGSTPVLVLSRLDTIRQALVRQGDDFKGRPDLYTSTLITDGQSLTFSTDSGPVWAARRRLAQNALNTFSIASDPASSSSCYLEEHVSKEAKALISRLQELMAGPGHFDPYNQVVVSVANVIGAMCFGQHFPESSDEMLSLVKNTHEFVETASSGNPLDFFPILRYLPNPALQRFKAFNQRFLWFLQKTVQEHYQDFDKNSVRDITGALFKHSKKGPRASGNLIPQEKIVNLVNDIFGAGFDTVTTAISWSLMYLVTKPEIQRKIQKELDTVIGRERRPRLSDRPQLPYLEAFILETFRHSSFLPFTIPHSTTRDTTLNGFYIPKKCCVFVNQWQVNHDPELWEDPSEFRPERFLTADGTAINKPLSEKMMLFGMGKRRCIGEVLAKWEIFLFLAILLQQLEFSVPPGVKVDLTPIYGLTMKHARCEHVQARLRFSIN
# protocol_details: Direct inhibition (DI) of CYP1A2 in human liver microsomes
# Type: in vitro ADME
# study_conditions: probe Phenacetin, human liver microsomes 0.2 mg/mL, 10 μM compound, read-out: Direct inhibition (DI) 1A2 (Phenacetin)
readout_label: inhibition at 20 min, 10 µM (%)

A: C=C(F)C(=O)N1CC=C(c2ccc3ncnc(Nc4ccc(Oc5cc6nncn6cn5)c(C)c4)c3c2)CC1 [Final product of Embodiment 6]
B: CCOc1cc2ncnc(Nc3ccc(Oc4ccn5ncnc5c4)c(C)c3)c2cc1NC(=O)/C(F)=C/[C@@H]1CCCN1C [Final product of Embodiment 47]
QUERY: Which is greater in inhibition at 20 min, 10 µM, the first item A or the second item B ? State your choice using its label.
RESULT: B
(B: 35%, A: 13%)

1: C=CC(=O)N1CCCC(Nc2ccc3ncnc(Nc4ccc(Oc5cc6nncn6cn5)c(C)c4)c3c2)C1 (stereo in doubt) [Final product of Embodiment 8]
2: C=CC(=O)NC1CCC=C(c2ccc3ncnc(Nc4ccc(Oc5cc6nncn6cn5)c(C)c4)c3c2)C1 (stereo not drawn) [Final product of Embodiment 1]
3: Cc1cc(Nc2ncnc3ccc(NC(=O)/C=C/[C@H]4CCCN4C)cc23)ccc1Oc1ccc2nccn2c1 [Final product of Embodiment 24]
QUERY: Could you please order the items by inhibition at 20 min, 10 µM, going from the lowest number to the highest? Put the labels in the order asked and list them.
RESULT: 1, 3, 2
